residual activity values, listed per item
- experimentalSystem: Protein kinase C gamma type (Homo sapiens)
- cond: at 1 µM
measuredMetric: residual activity (%)

smilesrecord=Ic1cccc(CSc2nnc(-c3ccncc3)o2)c1 reportedmeasurement=97
smilesrecord=O=C1NC(=O)/C(=C/c2ccc3c(c2)OC(F)(F)O3)S1 reportedmeasurement=103
smilesrecord=Cn1cnc2cc3c(Nc4cccc(Br)c4)ncnc3cc21 reportedmeasurement=103
smilesrecord=COc1cc2ncnc(N3CCN(C(=O)Nc4ccc(Oc5ccccc5)cc4)CC3)c2cc1OC reportedmeasurement=103
smilesrecord=O=C(O)c1ccc2c3c1cccc3c(=O)n1c3ccccc3nc21 reportedmeasurement=94
smilesrecord=CC(=O)O/N=C1\C(=C2\C(=O)Nc3cc(Br)ccc32)Nc2ccccc21 reportedmeasurement=97
smilesrecord=CNc1cc2c(Nc3cccc(Br)c3)ncnc2cn1 reportedmeasurement=109
smilesrecord=COc1ccc(C(=O)Nc2sc3c(c2C(N)=O)CCCC3)cc1OC reportedmeasurement=117
